B1: tRNA (parent)
chain: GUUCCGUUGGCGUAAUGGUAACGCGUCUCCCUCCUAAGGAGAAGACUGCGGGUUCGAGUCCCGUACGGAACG

- Variants of: B1
- assay name: yeast fitness relative to wild type (ratio to wild type); higher = fitter; tRNA-Arg(CCU), competitive growth, 37 C, YPD
Fewer inactive variants are shown than the library holds.
measurement name: yeast fitness

Study these solved cases before continuing.
[
  {
    "sequence change": "C27U C33U A36U A43G",
    "result": "≤ 0.5"
  },
  {
    "sequence change": "U3A U19A C33U G52C A65G",
    "result": "≤ 0.5"
  }
]

# ---- query variant ----
Please report the recorded yeast fitness for C11U C55A G58C .
≤ 0.5
